Assay: solvent given as SMILES
Conditions: in ClC(Cl)Cl
readoutKind: absorption maximum (nm)
Reply numerically in nm, unit not repeated.

Lookup: Return reported absorption maximum; argument: CN(C)c1ccc(/C=C/C=C2\CC/C(=C\c3ccc(N(C)C)cc3)C2=O)cc1
Found: 486

Lookup: Return reported absorption maximum; argument: O=[N+]([O-])c1ccc(NCCN(Cc2c3ccccc3cc3ccccc23)c2ccc([N+](=O)[O-])cc2[N+](=O)[O-])c([N+](=O)[O-])c1
Found: 355

Lookup: Return reported absorption maximum; argument: COc1ccc2c(c1)CCc1c-2nc(N)c(C#N)c1-c1ccc(Br)cc1
Found: 368

Lookup: Return reported absorption maximum; argument: O=C1Cc2cc3c(cc2CCCc2ccc(cc2)CCC3)CC(=O)Cc2ccc(c3nsnc23)C1
Found: 404

Lookup: Return reported absorption maximum; argument: CC(=O)O[B-]1(OC(C)=O)OC(/C=C/c2ccccc2)=CC(/C=C/c2ccccc2)=[O+]1
Found: 426

Lookup: Return reported absorption maximum; argument: CN(C)c1ccc(-c2ccc(-c3ccc(N(C)C)cc3)c3nc(-c4ccccc4)c(-c4ccccc4)nc23)cc1
Found: 443

Lookup: Return reported absorption maximum; argument: CCCN1c2ccccc2Sc2cc(/C=C\c3cc(=O)oc4cc(C)ccc34)ccc21
Found: 424

Lookup: Return reported absorption maximum; argument: Cc1ccc(C(=O)/N=c2\oc3cccc4c5c(-c6ccccc6)oc6cccc(c(c2-c2ccccc2)c34)c65)cc1
Found: 385

---

Assay: solvent given as SMILES
Conditions: in CCCCCCCCO
readoutKind: absorption maximum (nm)
Reply numerically in nm, unit not repeated.

Lookup: Return reported absorption maximum; argument: CCCCCCCCCCCCCCCCN(CCCCCCCCCCCCCCCC)c1ccc(/C=C/c2cc[n+](Cc3cc(C[n+]4ccc(/C=C/c5ccc(N(CCCCCCCCCCCCCCCC)CCCCCCCCCCCCCCCC)cc5)cc4)cc(C[n+]4ccc(/C=C/c5ccc(N(CCCCCCCCCCCCCCCC)CCCCCCCCCCCCCCCC)cc5)cc4)c3)cc2)cc1
Found: 498

Lookup: Return reported absorption maximum; argument: CC1=CC(C)=[N+]2C1=Cc1c3ccccc3c(C#Cc3cccs3)n1[B-]2(F)F
Found: 625

Lookup: Return reported absorption maximum; argument: CC1=C(C(C)(C)C)C(C)=[N+]2C1=C(C)c1c(C)c(C(C)(C)C)c(C)n1[B-]2(F)F
Found: 527.3

Lookup: Return reported absorption maximum; argument: CCN(CC)c1ccc2c(C)cc(=O)oc2c1
Found: 373

Lookup: Return reported absorption maximum; argument: COc1ccc2cc(-c3ccc(C(F)(F)F)cc3)oc(=O)c2c1
Found: 327

---

Assay: solvent given as SMILES
Settings: in CN(C)C=O
Would you mind telling me the reported absorption maximum of each entry?
Reply numerically in nm, unit not repeated.

Lookup: Return reported absorption maximum; argument: CN(C)c1ccc2nc(/C=C/c3ccccc3)c(=O)oc2c1
Found: 469

Lookup: Return reported absorption maximum; argument: COc1ccc(C#Cc2ccc(C#Cc3ccc(C#Cc4ccccc4C#N)cc3C#N)cc2C#N)cc1
Found: 369

Lookup: Return reported absorption maximum; argument: COc1cc2c(cc1/C=C/C1=CC(=C(C#N)C#N)CC(C)(C)C1)c1ccccc1n2C
Found: 484

Lookup: Return reported absorption maximum; argument: Cc1nc2cccc(-c3nc4ccccc4[nH]3)c2c(=O)[nH]1
Found: 313

Lookup: Return reported absorption maximum; argument: N#C[Se]CCCCCOc1ccc2ccc(=O)oc2c1
Found: 322

Lookup: Return reported absorption maximum; argument: CC[N+]1(CC)CN2C(=N1)C(C(=O)O)=Cc1ccccc12
Found: 361

Lookup: Return reported absorption maximum; argument: CCOC(=O)/C(C#N)=C/c1cc2c3ccccc3n(C)c2cc1OC
Found: 417

Lookup: Return reported absorption maximum; argument: O=C1c2ccccc2C(=O)N1c1ccc(Cn2cncn2)cc1
Found: 314

Lookup: Return reported absorption maximum; argument: CCOc1cc2c(cc1/C=C/C1=CC(=C(C#N)C#N)CC(C)(C)C1)c1ccccc1n2CC
Found: 487

Lookup: Return reported absorption maximum; argument: CCN(CC)c1ccc2cc(/C=C/C(=C(C#N)C#N)c3ccc(N(c4ccccc4)c4ccccc4)cc3)c(=O)oc2c1
Found: 528

Lookup: Return reported absorption maximum; argument: O=C([O-])c1ccc(C(=O)[O-])c2cc3ccccc3cc12
Found: 396

Lookup: Return reported absorption maximum; argument: N#Cc1ccc(C#Cc2ccc(C#Cc3ccc(C#Cc4ccccc4C#N)cc3C#N)cc2C#N)cc1
Found: 357

Lookup: Return reported absorption maximum; argument: Fc1ccc(-c2nc3n(c2-c2ccncc2)CCS3)cc1
Found: 326.5

Lookup: Return reported absorption maximum; argument: O=C(O)c1ccccc1Nc1ccccc1
Found: 341

Lookup: Return reported absorption maximum; argument: CN(C)c1ccc2cc3c(cc2c1)OCCN=C3
Found: 362

Lookup: Return reported absorption maximum; argument: CCOC(=O)CN(CC(=O)OCC)c1ccc(-c2cc(-c3cccnc3)nc(-c3cccnc3)c2)cc1
Found: 334

Lookup: Return reported absorption maximum; argument: COc1ccc2c(c1)CCc1c-2nc(N)c(C#N)c1-c1ccc(Br)cc1
Found: 375

Lookup: Return reported absorption maximum; argument: CCN(CC)c1ccc2cc(-c3cn4ccccc4n3)c(=O)oc2c1
Found: 425

Lookup: Return reported absorption maximum; argument: O=c1c2ccccc2n2c3ccccc3c(=O)c3cc(-c4ccccc4)cc1c32
Found: 450

Lookup: Return reported absorption maximum; argument: CN(C)c1ccc(C2=Cc3c4ccccc4c4ccccc4[n+]3[B-](F)(F)O2)cc1
Found: 484

Lookup: Return reported absorption maximum; argument: CN(C)c1ccc(/C=C2\CC/C(=C\c3ccc(C#N)cc3)C2=O)cc1
Found: 464

Lookup: Return reported absorption maximum; argument: c1ccc(N2c3ccc4ccccc4c3-c3c4ccccc4nc[n+]3[B-]2(c2ccccc2)c2ccccc2)cc1
Found: 532

Lookup: Return reported absorption maximum; argument: CN(C)CCNCc1c2ccccc2cc2ccccc12
Found: 363

Lookup: Return reported absorption maximum; argument: CCN(CC)c1cc(NC(C)=O)c(/N=N/c2cc3c(=O)[nH][nH]c(=O)c3cc2[N+](=O)[O-])cc1OC
Found: 550

Lookup: Return reported absorption maximum; argument: CCCCn1c2ccc(/C=C(\C#N)c3ccc([N+](=O)[O-])cc3)cc2c2cc(Cn3c(-c4ccc5c(c4)c4ccccc4n5CCCC)nc4ccccc43)ccc21
Found: 423

Lookup: Return reported absorption maximum; argument: CCN(CC)c1ccc(/C=N/CC/N=C/c2ccc(N(CC)CC)cc2O)c(O)c1
Found: 353

Lookup: Return reported absorption maximum; argument: CCOC(=O)c1ccccc1-c1c2ccc(=[N+](CC)CC)cc-2oc2cc(N(CC)CC)ccc12
Found: 560

Lookup: Return reported absorption maximum; argument: Cc1ccccc1/C(C#N)=C/c1ccc(N(C)C)cc1
Found: 382

Lookup: Return reported absorption maximum; argument: COc1ccc(-c2csc(/C(C#N)=C/c3ccc(C#N)cc3)n2)cc1
Found: 395

Lookup: Return reported absorption maximum; argument: COc1cc(N(c2ccccc2)c2ccccc2)ccc1C=C(C#N)C#N
Found: 445

Lookup: Return reported absorption maximum; argument: COc1ccc(C2CC(c3ccc(O)cc3)=NN2c2ccc(S(N)(=O)=O)cc2)cc1 (stereo not drawn)
Found: 361

Lookup: Return reported absorption maximum; argument: CCCCCC(CC)C1(C(CC)CCCCC)c2ccccc2-c2ccc(C#Cc3cc(C#Cc4ccc5c(c4)C(C(CC)CCCCC)(C(CC)CCCCC)c4ccccc4-5)c4ccc5c(C#Cc6ccc7c(c6)C(C(CC)CCCCC)(C(CC)CCCCC)c6ccccc6-7)cc(C#Cc6ccc7c(c6)C(C(CC)CCCCC)(C(CC)CCCCC)c6ccccc6-7)c6ccc3c4c65)cc21 (stereo not drawn)
Found: 496

Lookup: Return reported absorption maximum; argument: CC(C)(C)c1ccc(-c2nc3c4ccc(-c5cc6ccccc6c6ccccc56)cc4c4cc(-c5cc6ccccc6c6ccccc56)ccc4c3n2-c2ccc(C(C)(C)C)cc2)cc1
Found: 328

Lookup: Return reported absorption maximum; argument: COc1cc2c(cc1/C=C(\C#N)c1nc3ccccc3s1)c1ccccc1n2C
Found: 439

Lookup: Return reported absorption maximum; argument: O=C(N/N=C/c1ccccc1O)c1cccc2ccccc12
Found: 395

Lookup: Return reported absorption maximum; argument: CC(=O)c1ccc2ccc3cccc4ccc1c2c34
Found: 384

Lookup: Return reported absorption maximum; argument: CC1=CC(C)=[N+]2C1=Cc1c3ccccc3c(C#Cc3cccs3)n1[B-]2(F)F
Found: 626

Lookup: Return reported absorption maximum; argument: CCn1c2ccccc2c2cc(-c3cc(-c4ccc5c(c4)c4ccccc4n5CC)nc(S(C)(=O)=O)n3)ccc21
Found: 384

---

Assay: solvent given as SMILES
Conditions: in C1CCOC1
readoutKind: absorption maximum (nm)
Reply numerically in nm, unit not repeated.

Lookup: Return reported absorption maximum; argument: CCCCC1(CCCC)c2cc(-c3ccc(C=C4C(=O)c5ccccc5C4=O)cc3)ccc2-c2ccc(-c3ccc(C=C4C(=O)c5ccccc5C4=O)cc3)cc21
Found: 438

Lookup: Return reported absorption maximum; argument: COc1cc(OC)cc(C2=C3C(C)=C(I)C(/C=C/c4ccsc4)=[N+]3[B-](F)(F)n3c(/C=C/c4ccsc4)c(I)c(C)c32)c1
Found: 670

Lookup: Return reported absorption maximum; argument: CC1=N/C(=C\c2ccc(C#N)c(N(C)C)c2)C(=O)N1C
Found: 368

Lookup: Return reported absorption maximum; argument: CCCCCN(c1ccccc1)c1ccc2c(c1)C(CC)(CC)c1cc(/C=C/c3ccc(/C=C(\C#N)C(=O)O)s3)ccc1-2
Found: 456

Lookup: Return reported absorption maximum; argument: CCCCCOc1cc2oc(=O)c3c4ccc(O)cc4c4ccc5cccc6c(c1)c2c3c4c56
Found: 443

Lookup: Return reported absorption maximum; argument: c1ccc2c(c1)Cc1c-2sc2c1Cc1ccccc1-2
Found: 354

Lookup: Return reported absorption maximum; argument: COc1cc2c(cc1-c1ccsc1)Cc1c3c(c4c(c1-2)-c1cc(OC)c(-c2ccsc2)cc1C4)C(=O)N(CCC(C)C)C3=O
Found: 417

Lookup: Return reported absorption maximum; argument: Cc1ccc(OCc2cc(=O)oc3c2ccc2ccccc23)cc1
Found: 352

Lookup: Return reported absorption maximum; argument: COc1cc2c(cc1/C=C/C1=CC(=C(C#N)C#N)CC(C)(C)C1)c1ccccc1n2C
Found: 475
